# credit: ChEMBL document CHEMBL5528003

- METHOD DESCRIPTION: Cmax in Sprague-Dawley rat at 25 mg/kg, IM measured after 49 days by LC-MS/MS analysis
- Format: ADME, organism-based
- TEST CONTEXT: in vivo, time 49 day
ASSAY READOUT: Cmax
Kindly report the value followed by its unit.

Data request: // Cmax lookup, key: C[C@]12CC[C@@H]3c4ccc(O)cc4C[C@@H](CCCCCCCCC[S+]([O-])CCCC(F)(F)C(F)(F)F)[C@H]3[C@@H]1CC[C@@H]2O (stereo partly specified) [FULVESTRANT]
Data returned: 36.7 ng/mL

---

- METHOD DESCRIPTION: MRT in Sprague-Dawley rat at 25 mg/kg, IM measured after 49 days by LC-MS/MS analysis
- Format: ADME, organism-based
- TEST CONTEXT: in vivo, time 49 day
ASSAY READOUT: MRT (days)
Record the value in days, omitting the unit from your answer.

Data request: // MRT lookup, key: C[C@]12CC[C@@H]3c4ccc(O)cc4C[C@@H](CCCCCCCCC[S+]([O-])CCCC(F)(F)C(F)(F)F)[C@H]3[C@@H]1CC[C@@H]2O (stereo partly specified) [FULVESTRANT]
Data returned: 18.3

---

- METHOD DESCRIPTION: Drug concentration in BALB/cNj Foxn1nu/Gpt mouse tumor xenografted with human MCF-7/TAMR-1 cells at 7.2 mg, IM administered for 28 days
- Format: ADME, tissue-based, Neoplasm
- TEST CONTEXT: time 28 day, read-out: Ct
ASSAY READOUT: concentration at 672 h

Data request: // concentration at 672 h lookup, key: C[C@@H]1Cc2c([nH]c3ccccc23)[C@@H](c2c(F)cc(NC3CN(CCCS(=O)(=O)CCCC(F)(F)C(F)(F)F)C3)cc2F)N1CC(F)(F)CO
Data returned: 252 ng/mL

---

- METHOD DESCRIPTION: Drug concentration in BALB/cNj Foxn1nu/Gpt mouse plasma xenografted with human MCF-7/TAMR-1 cells at 7.2 mg, IM administered for 28 days
- Format: ADME, cell-free
- TEST CONTEXT: time 28 day
ASSAY READOUT: concentration at 672 h (ng/mL)
Record the value in ng/mL, omitting the unit from your answer.

Data request: // concentration at 672 h lookup, key: C[C@@H]1Cc2c([nH]c3ccccc23)[C@@H](c2c(F)cc(NC3CN(CCCS(=O)(=O)CCCC(F)(F)C(F)(F)F)C3)cc2F)N1CC(F)(F)CO
Data returned: 87.7

---

- METHOD DESCRIPTION: Drug concentration in BALB/cNj Foxn1nu/Gpt mouse tumor xenografted with human MCF-7/TAMR-1 cells at 0.8 mg, IM administered for 28 days
- Type: ADME, tissue-based, Neoplasm
- TEST CONTEXT: time 28 day, read-out: Ct
ASSAY READOUT: concentration at 672 h
Kindly report the value followed by its unit.

Data request: // concentration at 672 h lookup, key: C[C@@H]1Cc2c([nH]c3ccccc23)[C@@H](c2c(F)cc(NC3CN(CCCS(=O)(=O)CCCC(F)(F)C(F)(F)F)C3)cc2F)N1CC(F)(F)CO
Data returned: 35.9 ng/mL

---

- METHOD DESCRIPTION: Drug concentration in BALB/cNj Foxn1nu/Gpt mouse tumor xenografted with human MCF-7/TAMR-1 cells at 2.4 mg, IM administered for 28 days
- Format: ADME, tissue-based, Neoplasm
- TEST CONTEXT: time 28 day, read-out: Ct
ASSAY READOUT: concentration at 672 h (ng/mL)
Record the value in ng/mL, omitting the unit from your answer.

Data request: // concentration at 672 h lookup, key: C[C@@H]1Cc2c([nH]c3ccccc23)[C@@H](c2c(F)cc(NC3CN(CCCS(=O)(=O)CCCC(F)(F)C(F)(F)F)C3)cc2F)N1CC(F)(F)CO
Data returned: 154

---

- METHOD DESCRIPTION: Tmax in Sprague-Dawley rat at 25 mg/kg, IM measured after 49 days by LC-MS/MS analysis
- Type: ADME, organism-based
- TEST CONTEXT: in vivo, time 49 day
ASSAY READOUT: Tmax (h)
Record the value in h, omitting the unit from your answer.

Data request: // Tmax lookup, key: C[C@]12CC[C@@H]3c4ccc(O)cc4C[C@@H](CCCCCCCCC[S+]([O-])CCCC(F)(F)C(F)(F)F)[C@H]3[C@@H]1CC[C@@H]2O (stereo partly specified) [FULVESTRANT]
Data returned: 6.96

---

- METHOD DESCRIPTION: Drug concentration in BALB/cNj Foxn1nu/Gpt mouse plasma xenografted with human MCF-7/TAMR-1 cells at 2.4 mg, IM administered for 28 days
- Format: ADME, cell-free
- TEST CONTEXT: time 28 day
ASSAY READOUT: concentration at 672 h (ng/mL)
Record the value in ng/mL, omitting the unit from your answer.

Data request: // concentration at 672 h lookup, key: C[C@@H]1Cc2c([nH]c3ccccc23)[C@@H](c2c(F)cc(NC3CN(CCCS(=O)(=O)CCCC(F)(F)C(F)(F)F)C3)cc2F)N1CC(F)(F)CO
Data returned: 46.6

---

- METHOD DESCRIPTION: Metabolic stability in rat liver microsomes assessed as parent compound remaining incubated for 60 mins in presence of NADPH by LC-MS/MS analysis
- Assay type: ADME, Microsome
- TEST CONTEXT: read-out: Stability
ASSAY READOUT: remaining at 1 h (%)
Record the value in %, omitting the unit from your answer.

Data request: // remaining at 1 h lookup, key: C[C@@H]1Cc2c([nH]c3ccccc23)[C@@H](c2c(F)cc(NC3CN(CC[S+]([O-])CCCC(F)(F)C(F)(F)F)C3)cc2F)N1CC(F)(F)F (stereo partly drawn)
Data returned: 71.6

Data request: Can you handle C[C@@H]1Cc2c([nH]c3ccccc23)[C@@H](c2c(F)cc(NC3CN(CCCS(=O)(=O)CCCC(F)(F)C(F)(F)F)C3)cc2F)N1CC(F)(F)CO next?
Data returned: 85.7

Data request: Can you handle C[C@@H]1Cc2c([nH]c3ccccc23)[C@@H](c2c(F)cc(NC3CN(CCC[S+]([O-])CCCC(F)(F)C(F)(F)F)C3)cc2F)N1CC(F)(F)F (stereo partly drawn) next?
Data returned: 93.7

Data request: Can you handle C[C@@H]1Cc2c([nH]c3ccccc23)[C@@H](c2c(F)cc(NC3CN(CC[S+]([O-])CCCC(F)(F)C(F)(F)F)C3)cc2F)N1CC(F)(F)CO (stereo partly drawn) next?
Data returned: 78

Data request: Can you handle C[C@@H]1Cc2c([nH]c3ccccc23)[C@@H](c2c(F)cc(NC3CN(CCCS(=O)(=O)CCCC(F)(F)C(F)(F)F)C3)cc2F)N1CC(F)(F)F next?
Data returned: 99.1

Data request: Can you handle C[C@@H]1Cc2c([nH]c3ccccc23)[C@@H](c2c(F)cc(OC3CN(CC[S+]([O-])CCCC(F)(F)C(F)(F)F)C3)cc2F)N1CC(F)(F)F (stereo partly drawn) next?
Data returned: 53.7

Data request: Can you handle C[C@]12CC[C@@H]3c4ccc(O)cc4C[C@@H](CCCCCCCCC[S+]([O-])CCCC(F)(F)C(F)(F)F)[C@H]3[C@@H]1CC[C@@H]2O (stereo partly drawn) [FULVESTRANT] next?
Data returned: 9.6

Data request: Can you handle C[C@@H]1Cc2c([nH]c3ccccc23)[C@@H](c2c(F)cc(NC3CN(CCC[S+]([O-])CCCC(F)(F)C(F)(F)F)C3)cc2F)N1CC(F)(F)CO (stereo partly drawn) next?
Data returned: 79.3

---

- METHOD DESCRIPTION: Drug concentration in BALB/cNj Foxn1nu/Gpt mouse plasma xenografted with human MCF-7/TAMR-1 cells at 2.0 mg, IM administered for 28 days
- Format: ADME, cell-free
- TEST CONTEXT: time 28 day
ASSAY READOUT: concentration at 672 h (ng/mL)
Record the value in ng/mL, omitting the unit from your answer.

Data request: // concentration at 672 h lookup, key: C[C@]12CC[C@@H]3c4ccc(O)cc4C[C@@H](CCCCCCCCC[S+]([O-])CCCC(F)(F)C(F)(F)F)[C@H]3[C@@H]1CC[C@@H]2O (stereo partly specified) [FULVESTRANT]
Data returned: 30.8

---

- METHOD DESCRIPTION: Drug concentration in BALB/cNj Foxn1nu/Gpt mouse tumor xenografted with human MCF-7/TAMR-1 cells at 2.0 mg, IM administered for 28 days
- Format: ADME, tissue-based, Neoplasm
- TEST CONTEXT: time 28 day, read-out: Ct
ASSAY READOUT: concentration at 672 h (ng/mL)
Record the value in ng/mL, omitting the unit from your answer.

Data request: // concentration at 672 h lookup, key: C[C@]12CC[C@@H]3c4ccc(O)cc4C[C@@H](CCCCCCCCC[S+]([O-])CCCC(F)(F)C(F)(F)F)[C@H]3[C@@H]1CC[C@@H]2O (stereo partly specified) [FULVESTRANT]
Data returned: 83.4
